Test: physchem
Settings: water
assayMetric: solubility

Noted for CC(=O)Nc1c(I)c(C(=O)NCC(=O)N(C)CC(O)CO)c(I)c(C(=O)NCC(=O)N(C)CC(O)CO)c1I (stereo not shown) : its solubility reads ~1000 mg/mL

----------
System: Swiss albino mice
Test: Intracerebral toxicity study in mice (48 hours LD50)
Type: in vivo
Conditions: 0.05 ml. (0.1 ml. maximum), concentration I W/V: Example 1 26.3, Example 2 11.25, Example 3 28.2, Example 5 28.2
assayMetric: Intracerebral LD50

Noted for CC(=O)Nc1c(I)c(C(=O)NCC(=O)N(C)C[C@H](O)[C@@H](O)[C@H](O)[C@H](O)CO)c(I)c(N(C)C(C)=O)c1I [Example 5] : its Intracerebral LD50 reads ~1100 mg. I/kg.

Noted for CC(=O)Nc1c(I)c(C(=O)NCC(=O)N[C@@H](CO)[C@@H](O)[C@H](O)[C@H](O)CO)c(I)c(N(C)C(C)=O)c1I [Example 1] : its Intracerebral LD50 reads ~1550 mg. I/kg.

Noted for CC(=O)Nc1c(I)c(C(=O)NCC(=O)N(C)CC(O)CO)c(I)c(C(=O)NCC(=O)N(C)CC(O)CO)c1I (stereo not shown) [Example 3] : its Intracerebral LD50 reads ~1425 mg. I/kg.

Noted for CNC(=O)c1c(I)c(NC(C)=O)c(I)c(C(=O)NCC(=O)N[C@@H](CO)[C@@H](O)[C@H](O)[C@H](O)CO)c1I [Example 2] : its Intracerebral LD50 reads > 543 mg. I/kg.

----------
System: Sprague Dawley rats
Experiment: Intracisternal toxicity study in rats (LD50)
Assay type: in vivo
Conditions: cisterna magna, single dose, seven days, concentration I W/V: Example 1 35.0, Example 2 11.25, Example 3 14.1, Example 5 35.0
assayMetric: Intracisternal LD50 (mg. I/kg.)
Express it in mg. I/kg.; write the number only.

Noted for CC(=O)Nc1c(I)c(C(=O)NCC(=O)N(C)CC(O)CO)c(I)c(C(=O)NCC(=O)N(C)CC(O)CO)c1I (stereo not shown) : its Intracisternal LD50 reads 100

Noted for CC(=O)Nc1c(I)c(C(=O)NCC(=O)N(C)C[C@H](O)[C@@H](O)[C@H](O)[C@H](O)CO)c(I)c(N(C)C(C)=O)c1I : its Intracisternal LD50 reads 400

----------
Assay: Solubility in water
assayMetric: solubility (mg/mL)
Express it in mg/mL; write the number only.

Noted for CC(=O)Nc1c(I)c(C(=O)NCC(=O)N[C@@H](CO)[C@@H](O)[C@H](O)[C@H](O)CO)c(I)c(N(C)C(C)=O)c1I : its solubility reads 1000

----------
System: Swiss albino mice
Test: Intravenous toxicity study in mice (seven-day LD50)
Type: in vivo
Settings: lateral tail vein, 1 ml./min., concentration I W/V: Example 1 26.3, Example 2 11.25, Example 3 28.2, Example 5 28.0
assayMetric: Intravenous LD50

Noted for CC(=O)Nc1c(I)c(C(=O)NCC(=O)N(C)C[C@H](O)[C@@H](O)[C@H](O)[C@H](O)CO)c(I)c(N(C)C(C)=O)c1I : its Intravenous LD50 reads ~8,000 mg. I/kg.

Noted for CNC(=O)c1c(I)c(NC(C)=O)c(I)c(C(=O)NCC(=O)N[C@@H](CO)[C@@H](O)[C@H](O)[C@H](O)CO)c1I : its Intravenous LD50 reads > 7,500 mg. I/kg.

Noted for CC(=O)Nc1c(I)c(C(=O)NCC(=O)N[C@@H](CO)[C@@H](O)[C@H](O)[C@H](O)CO)c(I)c(N(C)C(C)=O)c1I : its Intravenous LD50 reads ~10,000 mg. I/kg.

Noted for CC(=O)Nc1c(I)c(C(=O)NCC(=O)N(C)CC(O)CO)c(I)c(C(=O)NCC(=O)N(C)CC(O)CO)c1I (stereo not shown) : its Intravenous LD50 reads > 15,000 mg. I/kg.

Origin of the recorded values: patent US4307072A
